tested on: LXRb:RXRa (NR concentration 270 nM, RXRa partner concentration 90 nM); assay: PBM binding z-score (relative to random genomic background probes); higher = stronger binding; sequences stand for … in GC…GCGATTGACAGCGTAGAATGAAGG
reported.metric: PBM binding z-score

Example results:
>  <monomer.sequence>
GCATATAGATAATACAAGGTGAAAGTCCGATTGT

>  <PBM binding z-score>
0.117

$$$$
>  <monomer.sequence>
CGAACTAGGTTATCCAGGACAGTGAATACATTGA

>  <PBM binding z-score>
0.204

$$$$
>  <monomer.sequence>
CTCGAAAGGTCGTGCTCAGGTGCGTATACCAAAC

>  <PBM binding z-score>
2.86

$$$$
>  <monomer.sequence>
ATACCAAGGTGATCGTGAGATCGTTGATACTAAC

>  <PBM binding z-score>
0.121

$$$$
>  <monomer.sequence>
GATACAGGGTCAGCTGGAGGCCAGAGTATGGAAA

>  <PBM binding z-score>
2.38

$$$$
>  <monomer.sequence>
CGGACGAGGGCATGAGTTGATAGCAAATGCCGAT

>  <PBM binding z-score>
-0.154

$$$$

Problem: What value of measured PBM binding z-score is listed for CCTACTGGGCCATTCAGAAGTCATTGATCATATG ?
Solution: -0.497

Problem: Now give it for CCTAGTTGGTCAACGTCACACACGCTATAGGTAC too.
Solution: 0.877

Problem: Now give it for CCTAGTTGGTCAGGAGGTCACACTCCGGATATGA too.
Solution: 3.31

* * *

system: PPARa:RXRa (NR concentration 270 nM, RXRa partner concentration 90 nM); assay: PBM binding z-score (relative to random genomic background probes); higher = stronger binding; sequences stand for … in GC…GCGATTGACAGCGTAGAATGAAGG
Outcome label depends on PBM binding z-score relative to 3: at/above gives 1.0, below gives 0.0.

Use the examples below as a reference point.
>  <monomer.sequence>
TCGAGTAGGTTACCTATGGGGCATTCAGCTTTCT

>  <system>
PPARa:RXRa (NR concentration 270 nM, RXRa partner concentration 90 nM)

>  <label.value>
0.0

$$$$
>  <monomer.sequence>
ATCGAAAGGACGACGAGGTGAGTATACACCGTTT

>  <system>
PPARa:RXRa (NR concentration 270 nM, RXRa partner concentration 90 nM)

>  <label.value>
0.0

$$$$
>  <monomer.sequence>
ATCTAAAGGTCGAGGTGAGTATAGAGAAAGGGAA

>  <system>
PPARa:RXRa (NR concentration 270 nM, RXRa partner concentration 90 nM)

>  <label.value>
1.0

$$$$
>  <monomer.sequence>
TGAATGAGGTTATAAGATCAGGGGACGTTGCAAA

>  <system>
PPARa:RXRa (NR concentration 270 nM, RXRa partner concentration 90 nM)

>  <label.value>
0.0

$$$$

Next:
Problem: Hi, just wondering whether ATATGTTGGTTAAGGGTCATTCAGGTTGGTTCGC shows PBM binding z-score of 3 or higher.
Solution: 1.0

* * *

test system: FXR:RXRa (NR concentration 270 nM, RXRa partner concentration 90 nM); assay: PBM binding z-score (relative to random genomic background probes); higher = stronger binding; sequences stand for … in GC…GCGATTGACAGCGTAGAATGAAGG
In this section, each of the sequences is paired with its reported PBM binding z-score.

Example results:
>  <monomer.sequence>
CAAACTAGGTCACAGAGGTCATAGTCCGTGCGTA

>  <meas.value>
6.73

$$$$
>  <monomer.sequence>
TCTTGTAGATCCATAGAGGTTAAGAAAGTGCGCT

>  <meas.value>
0.485

$$$$

Problem: What value of measured PBM binding z-score is listed for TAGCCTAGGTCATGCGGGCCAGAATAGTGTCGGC ?
Solution: 4.39

Problem: Now give it for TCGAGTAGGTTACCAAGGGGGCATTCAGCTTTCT too.
Solution: 1.44

Problem: Now give it for CGAATTAGGTCAAGGACAGTGAATCTCCGCACGC too.
Solution: 4

Problem: Now give it for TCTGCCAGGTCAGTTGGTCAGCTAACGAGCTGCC too.
Solution: 1.42

Problem: Now give it for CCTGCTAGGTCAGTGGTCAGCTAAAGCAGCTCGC too.
Solution: 0.953

Problem: Now give it for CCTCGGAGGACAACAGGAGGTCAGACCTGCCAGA too.
Solution: 0.836

Problem: Now give it for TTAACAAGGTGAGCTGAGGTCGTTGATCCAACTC too.
Solution: 1.71

Problem: Now give it for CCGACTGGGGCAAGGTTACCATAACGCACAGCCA too.
Solution: 0.287

Problem: Now give it for CCTTACGGGTCAAGATTATAGCACGGGTGGTACG too.
Solution: 4.99

Problem: Now give it for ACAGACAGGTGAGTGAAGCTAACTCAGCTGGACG too.
Solution: -0.673

Origin of the recorded values: the supplement of paper PMC6555819
